- TEST_SYSTEM: Protein kinase C beta type (Homo sapiens);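 further: PKC-beta1 splice variant of the enzyme, figure reported as mean inhibition, measured within the GSK PKIS kinase profiling panel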
- REPORTED_CONDITIONS: at 0.1 µM
- Description: GSK_PKIS: PKC-beta1 (splice variant) mean inhibition at 0.1 uM [Nanosyn]
VALUE_TYPE: inhibition (%)
Give bare numbers, in %.

Consider the worked cases shown below.
COMPOUND	inhibition, %
CCc1nccc2c1nc(-c1nonc1N)n2CC	2.42
Nc1nccc(-c2c(-c3ccc(F)cc3)ncn2C2CCC(O)CC2)n1 (stereo unspecified)	3.05
C#Cc1cccc(Nc2ncnc3ccc(OCCCCNCCS(C)(=O)=O)cc23)c1	1.6
NC(=O)c1cc(-c2ccncc2)cc(-c2ccccc2)c1N	1.43
O=C(Nc1ccc(Oc2ccc3[nH]c(NC(=O)c4ccccc4)nc3c2)cc1)Nc1cc(C(F)(F)F)ccc1F	0.29

Now consider a different compound.
[in] Return reported inhibition; argument: `Cc1ccc(NC(=O)c2ccoc2)cc1-c1ccc(C(=O)NCC2CC2)cc1`
[out] 1.84

* * *

- TEST_SYSTEM: Serine/threonine-protein kinase PAK 6 (Homo sapiens) (UniProt Q9NQU5);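 further: mean PAK6 inhibition reported from the GSK PKIS screen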
- Sequence (Q9NQU5 whole entry, looked up): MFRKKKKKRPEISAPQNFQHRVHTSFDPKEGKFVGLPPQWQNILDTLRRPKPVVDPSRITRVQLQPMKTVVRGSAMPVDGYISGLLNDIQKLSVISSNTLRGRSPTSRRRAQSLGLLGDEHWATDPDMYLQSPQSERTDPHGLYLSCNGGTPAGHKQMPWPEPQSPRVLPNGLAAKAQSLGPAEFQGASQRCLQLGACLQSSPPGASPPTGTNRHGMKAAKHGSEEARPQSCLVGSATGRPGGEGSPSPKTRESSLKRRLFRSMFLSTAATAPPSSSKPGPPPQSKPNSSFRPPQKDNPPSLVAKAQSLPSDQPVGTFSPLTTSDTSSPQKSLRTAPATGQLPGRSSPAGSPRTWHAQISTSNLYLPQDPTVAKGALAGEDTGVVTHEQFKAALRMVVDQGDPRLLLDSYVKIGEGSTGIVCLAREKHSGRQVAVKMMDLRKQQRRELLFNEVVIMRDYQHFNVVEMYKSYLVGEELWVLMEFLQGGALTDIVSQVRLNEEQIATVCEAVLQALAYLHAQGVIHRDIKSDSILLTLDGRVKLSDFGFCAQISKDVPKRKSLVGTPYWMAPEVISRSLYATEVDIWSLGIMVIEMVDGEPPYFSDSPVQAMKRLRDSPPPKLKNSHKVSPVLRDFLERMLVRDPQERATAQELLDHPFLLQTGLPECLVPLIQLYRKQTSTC
- REPORTED_CONDITIONS: at 0.1 µM
Field: inhibition. Provide a value for each of the compounds that follow.
Answers are plain numbers, in %.

Give inhibition for all compounds that follow.
1. O=C(Nc1n[nH]c2cc(-c3ccccc3)ccc12)C1CC1
2. NC(=O)c1cc(-c2ccc(F)cc2)cc(-c2ccncc2)c1N
3. COc1ccc2cc(-c3c(-c4ccncc4)nc(-c4ccc([S+](C)[O-])cc4C)n3C)ccc2c1 (stereo unspecified)
4. COc1cccc(-n2cnc3c(N/N=C/c4ccncc4)ncnc32)c1
5. COC(=O)Nc1nc2ccc(Sc3ccc(NC(=O)Nc4cc(C(F)(F)F)ccc4F)cc3)cc2[nH]1
6. CN1CCN(CCCNc2nc3ccc(Oc4ccc(NC(=O)Nc5cc(C(F)(F)F)ccc5F)cc4)cc3[nH]2)CC1

[out]
[5.51, -6.76, -2.81, 5.99, -4.57, -3.01]

For each of the items listed, what is its inhibition?
1. COc1cccc(/C=N/Nc2ncnc3c2cnn3-c2cccc(OC)c2)c1
2. Fc1ccc(-c2ncn(CCCN3CCOCC3)c2-c2ccncc2)cc1
3. NCc1ccc(-n2c(-c3nonc3N)nc3cnccc32)cc1
4. COc1cc(C)c(N(C)C(=O)CN(C)C)cc1Nc1nc(Nc2cccc(F)c2C(N)=O)c2cc[nH]c2n1
5. O=C(Nc1n[nH]c2nc(-c3ccco3)ccc12)C1CC1
6. c1ccc(-c2n[nH]cc2-c2ccnc(-c3ccc(OCCN4CCOCC4)cc3)c2)nc1
7. Fc1ccc(-c2nc3n(c2-c2ccncc2)CCS3)cc1

[out]
[-3.17, -0.97, -1.38, -1.02, 6.27, 7.57, 9.34]

Please state, for each entry, its recorded inhibition.
1. NC(=O)c1cc(-c2ccncc2)cc(-c2ccccc2)c1N
2. CCc1nccc2c1nc(-c1nonc1N)n2CC
3. Cc1nnc(-c2ccc(C)c(-c3ccc(C(=O)NCc4ccc(Cl)cc4)cc3)c2)o1
4. O=C1NC(=O)C(c2cccc(Cl)c2)=C1Nc1ccc(Cl)c(C(=O)O)c1
5. Fc1ccc(-c2c(-c3ccncc3)nc3n2CCS3)cc1
6. Cc1ccc(NC(=O)c2ccoc2)cc1-c1ccc(C(=O)NCC2CC2)cc1
7. CS(=O)(=O)CCNCc1ccc(-c2ccc3ncnc(Nc4ccc(OCc5ccccc5)c(Br)c4)c3c2)o1
8. COc1cc2ncn(-c3cc(OCCc4ccccc4)c(C(N)=O)s3)c2cc1OC

[out]
-0.84
3.51
-4.24
-2.69
1.52
-5.33
-8.08
1.18
